The reported numbers originate from PubChem BioAssay (EPA / NIEHS).

read-out: Cytochrome P450 2C19 (Homo sapiens); test: LTEA_HepaRG_CYP2C19: Life Technologies and Expression Analysis (LTEA) Assay for CYP2C19 using HepaRG (AID 2283482); details: mRNA level, 48 h; actives raise or lower the signal
Activity calls are given as the source filed them. How the source made its calls: active means hit-call score of the fitted dose curve at least 0.9, where 1 is the maximum; inactive means score below 0.9.
Use one of these outcomes when replying: yes for active, no for inactive

Known results for compounds:
>  <COMPOUND>
CCOP(=S)(OCC)Oc1nc(Cl)n(C(C)C)n1

>  <ASSIGNED CLASS>
yes

$$$$
>  <COMPOUND>
O=C1C2CC=CCC2C(=O)N1SC(Cl)(Cl)Cl (stereo not drawn)

>  <ASSIGNED CLASS>
no

$$$$
>  <COMPOUND>
COCC(C)N(C(=O)CCl)c1c(C)csc1C (stereo not drawn)

>  <ASSIGNED CLASS>
no

$$$$

Input: Per the assay record, what outcome was assigned to Nc1c(Cl)c(F)nc(OCC(=O)O)c1Cl ?
Output: no

Input: Per the assay record, what outcome was assigned to COC(=O)c1c(C(F)F)nc(C(F)(F)F)c(C2=NCCS2)c1CC(C)C ?
Output: yes

Input: Per the assay record, what outcome was assigned to Cc1c(COC(=O)[C@@H]2[C@H](/C=C(\Cl)C(F)(F)F)C2(C)C)cccc1-c1ccccc1 ?
Output: yes

Input: Per the assay record, what outcome was assigned to Clc1nc(Cl)nc(Nc2ccccc2Cl)n1 ?
Output: yes

Input: Per the assay record, what outcome was assigned to CCSC(=O)N1CCCCCC1 ?
Output: no
